Recorded TGI, one value per entry.
- Tested on: HOP-92 NSCLC
- Assay Explanation: NCI tumour cell line growth inhibition, 48 h

Worked examples follow.
CN1CCCC(C(=O)OCC(=O)C2(O)CCC3C4CCC5=CC(=O)CCC5(C)C4C(O)CC32C)C1 (configuration not stated) = > 100 µM
CCOC(=O)C(=O)Nc1cccc(C)c1C = > 100 µM

Query: Find the measured TGI of O=C1c2ccn(CCCCN(CCO)CCO)c2C(=O)c2c1c(O)c1ccccc1c2O with HOP-92 NSCLC as test system.
Reply: 50.8 µM

Query: Find the measured TGI of CC(=O)Nc1nnc(S(=O)(=O)NC(=S)Nc2ccc(Cl)cc2)s1 with HOP-92 NSCLC as test system.
Reply: > 100 µM

---

- Test system: RXF 393 renal
- Assay Explanation: NCI tumour cell line growth inhibition, 48 h
Assay Metric: TGI

Query: Query TGI for CC1=C(C(=O)NC(C)(C)C)CC(C(=O)NC(C)(C)C)C(C)N1 (stereo unspecified)
Reply: > 100 µM

Query: Query TGI for Cc1ccc([N+](=O)[O-])c2c(NCCC[N+](C)(C)[O-])ccnc12
Reply: > 100 µM

Query: Query TGI for CNc1ncc2cc(Oc3ccc(F)cc3F)c(=O)n(C)c2n1
Reply: > 25 µM

Query: Query TGI for COc1nc(OC)nc(Sc2ccc(Sc3ccc(Sc4nc(OC)nc(OC)n4)cc3)cc2)n1
Reply: > 100 µM

---

- Tested on: A498 renal
- Assay Explanation: NCI tumour cell line growth inhibition, 48 h
Assay Metric: TGI (µM)
Report only the number, with the unit µM understood.

COc1ccc2c(c1)C=C1CSCC3=Cc4cc(OC)ccc4OC13O2 = 0.766

Query: Query TGI for CCC(=O)c1c(C(F)(F)F)n([O-])c2ccccc2[n+]1=O
Reply: 9.03

Query: Query TGI for c1ccc(/C(=N\Nc2ccc3ccccc3n2)c2ccccn2)cc1
Reply: 80.4

Query: Query TGI for Cc1cn(Cc2ccccc2CCl)c(=O)n(Cc2ccccc2CCl)c1=O
Reply: 27.4

---

- Test system: M14 melanoma
- Assay Explanation: NCI tumour cell line growth inhibition, 48 h
Assay Metric: TGI

CN(C)N=Nc1nn(C(=O)Nc2ccc(Cc3ccccc3)cc2)c2ccccc12 = > 100 µM

Query: Query TGI for NS(=O)(=O)c1ccc(N2N=C(c3cccs3)CC2c2ccccc2O)cc1 (stereo not drawn)
Reply: 4.1 µM

Query: Query TGI for O=C1/C(=C\c2ccccc2)c2ccccc2N1/N=C\c1ccccc1
Reply: > 100 µM

---

- Tested on: HCT-116 colon
- Assay Explanation: NCI tumour cell line growth inhibition, 48 h
Assay Metric: TGI

Worked examples follow.
CC(=O)NC1C(OCc2ccccc2)OC(CO)C(O)C1OCC(=O)N1CCCC1C(=O)NC(CCC(=O)NCCCCCNc1c2ccccc2nc2cccc([N+](=O)[O-])c12)C(N)=O (stereo not given) = 0.137 µM
O=C(CC(=O)c1ccccc1)C(=O)NC12CC3CC(CC(C3)C1)C2 = > 100 µM
CN(C)C(=O)Oc1ccc(C(=S)Nc2ccccc2)cc1Br = > 100 µM
CC(=O)C1=NN(c2ccccc2)C2(S1)SC(c1ccccc1)(c1ccccc1)c1ccccc12 (stereo not given) = > 100 µM
O=c1cc(-c2ccc(O)cc2)oc2cc(O)cc(O)c12 = > 100 µM
NCCSC(C[N+](=O)[O-])c1ccccc1Cl (stereo not given) = 3.08 µM

Query: Query TGI for CCCOP(=S)(N1CC1)N1CC1
Reply: > 100 µM
